SYSTEM UNDER TEST: UniProt Q9NR96
Sequence (Q9NR96 26-1032): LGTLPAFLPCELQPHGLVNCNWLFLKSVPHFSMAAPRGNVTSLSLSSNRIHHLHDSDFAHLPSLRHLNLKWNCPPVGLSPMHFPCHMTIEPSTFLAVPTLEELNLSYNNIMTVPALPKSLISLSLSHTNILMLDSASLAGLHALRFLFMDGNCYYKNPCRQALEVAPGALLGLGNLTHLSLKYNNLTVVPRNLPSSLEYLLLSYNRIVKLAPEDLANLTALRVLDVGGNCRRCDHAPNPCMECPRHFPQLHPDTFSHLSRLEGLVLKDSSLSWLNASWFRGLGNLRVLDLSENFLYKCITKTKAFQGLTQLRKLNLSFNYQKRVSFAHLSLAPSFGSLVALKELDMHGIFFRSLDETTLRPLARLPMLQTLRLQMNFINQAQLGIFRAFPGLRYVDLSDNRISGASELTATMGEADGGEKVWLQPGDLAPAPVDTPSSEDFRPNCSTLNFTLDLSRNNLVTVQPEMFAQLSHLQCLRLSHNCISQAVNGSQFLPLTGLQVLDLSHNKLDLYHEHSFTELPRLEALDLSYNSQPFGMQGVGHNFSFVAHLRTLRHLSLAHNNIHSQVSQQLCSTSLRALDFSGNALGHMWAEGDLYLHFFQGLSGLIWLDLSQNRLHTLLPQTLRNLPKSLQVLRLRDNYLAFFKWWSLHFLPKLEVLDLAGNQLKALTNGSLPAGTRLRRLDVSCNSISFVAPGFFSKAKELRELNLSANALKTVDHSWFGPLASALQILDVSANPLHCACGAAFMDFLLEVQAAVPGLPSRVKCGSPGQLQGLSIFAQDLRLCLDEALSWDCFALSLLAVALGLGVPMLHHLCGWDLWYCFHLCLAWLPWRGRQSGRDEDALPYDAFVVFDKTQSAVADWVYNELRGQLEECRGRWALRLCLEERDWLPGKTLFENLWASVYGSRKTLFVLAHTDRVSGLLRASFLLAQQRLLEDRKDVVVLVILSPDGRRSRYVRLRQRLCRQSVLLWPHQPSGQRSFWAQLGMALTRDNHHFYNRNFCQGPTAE
ASSAY METHOD TEXT: Human PBMC cell-based assay (CpG ODN 2216 stimulation)
Design: These cells express TLR7, TLR8, or TLR9, and therefore are natural responders to respective ligand stimulation; endogenous in cells; host or cells: human PBMC from healthy donor whole blood
ASSAY CONDITIONS: CpG ODN 2216 at 1 μM, overnight, read-out: hPBMC/TLR9 IC50
READOUT KIND: IC50 (nM)

INSERT INTO measurements (compound, system_under_test, measured) VALUES
  ('CO[C@@H]1CN(c2ccc3c(n2)[C@@H](C)CN(c2cc(C)nc4c2cnn4C)C3)C[C@H]1N', 'UniProt Q9NR96', 430),
  ('Cn1ncc2c(N3CCc4cc(N5CCNCC5)ccc4C3)ccnc21', 'UniProt Q9NR96', 434),
  ('Cc1cc(N2Cc3ccc(N4C[C@@H](N)[C@H](O)C4)cc3[C@@H](C)C2)c2cnn(C)c2n1', 'UniProt Q9NR96', 290),
  ('CO[C@@H]1CN(c2ccc3c(c2)[C@@H](C)CN(c2cc(C)nc4c2cnn4C)C3)C[C@H]1N', 'UniProt Q9NR96', 240),
  ('C[C@H]1CN(c2ccnc3c2cnn3C)Cc2ccc(N3CCN(c4cc5c(cn4)CCNC5)CC3)cc21', 'UniProt Q9NR96', 326);

(1) Cc1cc(N2Cc3cnc(N4CCNCC4)cc3[C@@H](C)C2)c2cnn(C)c2n1
(2) Cc1cc(N2Cc3ccc(N4CCC5(CCNCC5)CC4)cc3C(C)C2)c2cnn(C)c2n1 (centres unmarked)
(3) C[C@H]1CN(c2ccnc3c2cnn3C)Cc2ccc(N3CCN[C@@H](CO)C3)cc21
Q. Sequence the entries by IC50, beginning with the highest number. Sort the labels as requested; that list is your answer.
A. 3, 1, 2

----------
ASSAY METHOD TEXT: Single dose pharmacokinetics (PK) study in male Wister-Han rats
Type: in vivo, rat
ASSAY CONDITIONS: rat, PO 10 mg/kg, plasma
Entries and their measured Cmax follow.
Answer with a number only, understood to be in ng/mL.

INSERT INTO measurements (molecule, readout_kind, unit_name, measured) VALUES
  ('C[C@H]1CN(c2ccnc3c2cnn3C)Cc2ccc(OC[C@@H]3CNCCN3)cc21 [Example 19]', 'Cmax', 'ng/mL', 102);

Please examine the following record next.
Q. Given the entry C[C@H]1CN(c2ccnc3c2cnn3C)Cc2ccc(N3CCNCC3)cc21 [Example 1] , report its measured Cmax.
A. 474

----------
SYSTEM UNDER TEST: human TLR8 (Homo sapiens)
Sequence (Q9NR97 27-1041): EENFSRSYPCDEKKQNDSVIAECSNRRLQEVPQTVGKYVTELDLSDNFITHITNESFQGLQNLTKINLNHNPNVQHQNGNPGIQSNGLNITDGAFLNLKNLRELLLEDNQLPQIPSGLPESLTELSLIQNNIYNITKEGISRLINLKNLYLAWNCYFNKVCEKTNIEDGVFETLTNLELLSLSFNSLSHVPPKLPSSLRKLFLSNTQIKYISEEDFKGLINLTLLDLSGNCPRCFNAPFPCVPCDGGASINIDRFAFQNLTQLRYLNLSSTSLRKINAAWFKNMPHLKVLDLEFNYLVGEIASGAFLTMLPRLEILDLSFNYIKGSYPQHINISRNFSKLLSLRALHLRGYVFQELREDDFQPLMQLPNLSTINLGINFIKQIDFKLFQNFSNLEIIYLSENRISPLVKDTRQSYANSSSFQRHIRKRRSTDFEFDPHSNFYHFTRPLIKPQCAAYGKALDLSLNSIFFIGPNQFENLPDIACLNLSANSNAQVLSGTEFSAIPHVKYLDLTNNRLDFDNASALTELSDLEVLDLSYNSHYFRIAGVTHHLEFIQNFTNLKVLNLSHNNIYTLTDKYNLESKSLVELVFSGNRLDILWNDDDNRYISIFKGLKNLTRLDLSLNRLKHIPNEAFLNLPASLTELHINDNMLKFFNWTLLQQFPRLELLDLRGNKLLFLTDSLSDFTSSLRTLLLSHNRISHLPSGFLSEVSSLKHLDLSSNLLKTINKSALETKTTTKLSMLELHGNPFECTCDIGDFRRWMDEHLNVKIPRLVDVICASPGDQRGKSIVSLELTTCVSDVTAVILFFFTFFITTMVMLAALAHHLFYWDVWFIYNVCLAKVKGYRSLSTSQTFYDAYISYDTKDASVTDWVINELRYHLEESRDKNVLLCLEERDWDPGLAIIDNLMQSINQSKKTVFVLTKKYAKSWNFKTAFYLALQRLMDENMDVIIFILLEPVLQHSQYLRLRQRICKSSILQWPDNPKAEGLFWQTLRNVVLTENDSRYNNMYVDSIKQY
ASSAY METHOD TEXT: HEK293-Blue-hTLR-8 cells assay (SEAP reporter, R848 stimulation)
ASSAY CONDITIONS: HEK293-Blue-hTLR8 cells, R848, 20 hrs; read-out: HEK/hTLR8 IC50
pIC50: −log10 of the molar value.
READOUT KIND: pIC50

Reference set, count: 6
INSERT INTO measurements (compound, readout_kind, measured) VALUES
  ('Cc1cc(N2Cc3ccc(N4CCC(N)CC4)nc3[C@@H](C)C2)c2cnn(C)c2n1', 'pIC50', 9.40),
  ('CCn1ncc2c(N3Cc4ccc(N5CCNCC5)cc4[C@@H](C)C3)ccnc21', 'pIC50', 7.80),
  ('CO[C@@H]1CN(c2ccc3c(n2)[C@@H](C)CN(c2cc(C)nc4c2cnn4C)C3)C[C@H]1N', 'pIC50', 7.80),
  ('Cc1cc(N2Cc3cnc(N4CCNC5(CC5)C4)cc3[C@@H](C)C2)c2cnn(C)c2n1', 'pIC50', 7.89),
  ('C[C@H]1CN(c2ccnc3c2cnn3C)Cc2ccc(N3C[C@@H]4CCNCC4C3=O)cc21 (relative stereo)', 'pIC50', 8.22),
  ('C[C@H]1CN(c2ccnc3c2cnn3C)Cc2ccc(N3CCN(S(=O)(=O)C4CCNC4)CC3)cc21 (stereo partly shown)', 'pIC50', 7.82);

(A) CO[C@H]1CN(c2cc3c(cn2)CN(c2cc(C)nc4c2cnn4C)C[C@@H]3C)CC[C@@H]1N
(B) C[C@H]1CN(c2ccnc3c2cnn3C)Cc2ccc(N3C[C@H]4CCNC[C@H]4C3=O)cc21 (single isomer, unassigned)
Q. Please indicate which has the smaller reported pIC50: A , or B . Give the label under which the chosen entry appears.
A. B

----------
SYSTEM UNDER TEST: TLR9 (Homo sapiens)
ASSAY METHOD TEXT: HEK293-Blue-hTLR-9 cells assay (SEAP reporter, ODN2006 stimulation)
Assay type: cell-based
Parameters: host or cells: HEK293 (HEK-Blue hTLR9)
ASSAY CONDITIONS: HEK293-Blue-hTLR9 cells, ODN2006, 20 hrs; read-out: HEK/hTLR9 IC50
Description: The following tests were carried out in order to determine the activity of the compounds of formula (I) and (Ia) in HEK293-Blue-hTLR-7/8/9 cells assay. A stable HEK293-Blue-hTLR-9 cell line was purchased from InvivoGen (Cat. #: hkb-htlr9, San Diego, California, USA). These cells were originally designed for studying the stimulation of human TLR9 by monitoring the activation of NF-κB. […]
READOUT KIND: IC50 (µM)

Worked examples follow.
INSERT INTO assay_data (compound, measured) VALUES
  ('Cc1cc(N2Cc3cnc(N4CC[C@@H](N)[C@H](F)C4)cc3[C@@H](C)C2)c2cnn(C)c2n1', 0.073),
  ('Cc1cc(N2Cc3cnc(OCCN4CCNCC4)cc3[C@@H](C)C2)c2cnn(C)c2n1', 0.144),
  ('C[C@H]1CN(c2ccnc3c2cnn3C)Cc2ccc(N3CC4(CNCCO4)C3)cc21', 0.372),
  ('Cc1cc(N2Cc3ccc(N4CC5(CNCCO5)C4)nc3[C@@H](C)C2)c2cnn(C)c2n1', 0.332),
  ('Cc1cc(N2Cc3ccc(OC[C@H]4CNCCN4)cc3[C@@H](C)C2)c2cnn(C)c2n1', 0.088);

(1) C[C@H]1CN(c2ccnc3c2cnn3C)Cc2ccc(N3CC4(CNC4)CC3=O)cc21
(2) C[C@H]1CN(c2ccnc3c2cnn3C)Cc2ccc(N3C[C@@H]4CCNCC4C3=O)cc21 (relative stereo)
(3) Cc1cc(N2Cc3ccc(N4CCNCC4)cc3[C@@H](C)C2)c2cnn(C)c2n1
(4) Cc1cc(N2Cc3ccc(N4CCOC5(CNC5)C4)nc3[C@@H](C)C2)c2cnn(C)c2n1
Q. Task for the reader: rank each entry by its IC50, from the minimum upward. Put the labels in the order asked and list them.
A. 3, 2, 1, 4

(P) Cc1cc(N2Cc3cnc(N4CCNCC4)cc3[C@@H](C)C2)c2cnn(C)c2n1
(Q) CO[C@@H]1CN(c2ccc3c(c2)[C@@H](C)CN(c2cc(C)nc4c2cnn4C)C3)C[C@H]1N
Q. Two entries are listed, P and Q . Which one carries the higher IC50? Give the label of your selection.
A. P

(I) Cc1cc(N2Cc3ccc(N4CCC(O)(CN(C)C)CC4)nc3[C@@H](C)C2)c2cnn(C)c2n1
(II) Cc1cc(N2Cc3ccc(OC4CCNCC4)nc3[C@@H](C)C2)c2cnn(C)c2n1
(III) CCn1ncc2c(N3Cc4ccc(N5CCNCC5)cc4[C@@H](C)C3)ccnc21
Q. List from greatest to least IC50. Rank them, then answer with their labels in that order.
A. III, II, I

(a) C[C@H]1CN(c2ccnc3c2cnn3C)Cc2ccc(N3CCN(c4cc5c(cn4)CCNC5)CC3)cc21
(b) C[C@H]1CN(c2ccnc3c2cnn3C)Cc2ccc(N3CCN(C(=O)C4CNCCO4)CC3)cc21 (stereo partly shown)
Q. Field: entry with larger IC50 (options a / b ). Answer format: the label of the selected item.
A. b
(b: 0.298 µM, a: 0.117 µM)
